assay: MRT (0 to t) in Sprague-Dawley rat at 10 mg/kg, po; assay type: ADME, organism-based; conditions: in vivo
property: MRT last (h)
Numbers only, in h.

Problem: # lookup: MRT last of Cc1ccc(NC(=O)c2ccc(CN(CCN(C)C)C(=O)c3cccnc3)cc2)cc1Nc1nccc(-c2cccnc2)n1
Result: 3.33

* * *

target: UniProt:P09619; test: Inhibition of TEL-fused PDGFRbeta (unknown origin) expressed in mouse BA/F3 cells assessed as growth inhibition after 72 hrs by CellTiter-Glo or CCK-8 assay; format: cell-based
property: GI50 (nM)
Numbers only, in nM.

mol_smiles=C=CC(=O)Nc1ccc(C(=O)Nc2ccc(C)c(Nc3nccc(-c4cccnc4)n3)c2)cc1 assay_target=UniProt:P09619 measure_unit=nM measured=757
mol_smiles=CCN(CC)CCN(Cc1ccc(C(=O)Nc2ccc(C)c(Nc3nccc(-c4cccnc4)n3)c2)cc1)C(=O)c1cccnc1 assay_target=UniProt:P09619 measure_unit=nM measured=699
mol_smiles=Cc1ccc(NC(=O)c2ccc(CN(CCN(C)C)C(=O)CN(C)C)cc2)cc1Nc1nccc(-c2cccnc2)n1 assay_target=UniProt:P09619 measure_unit=nM measured=9200

Problem: # lookup: GI50 of Cc1ccc(NC(=O)c2ccc(CN(CCN(C)C)C(=O)c3ccno3)cc2)cc1Nc1nccc(-c2cccnc2)n1
Result: 787

* * *

Exercise: state measured GI50 for each of the compounds provided.
molecular target: Platelet-derived growth factor receptor beta (Homo sapiens, UniProt P09619); test: Inhibition of TEL-fused PDGFRbeta (unknown origin) expressed in mouse BA/F3 cells assessed as growth inhibition after 72 hrs by CellTiter-Glo or CCK-8 assay; format: cell-based
Sequence (P09619 whole entry, the tested form may be a part): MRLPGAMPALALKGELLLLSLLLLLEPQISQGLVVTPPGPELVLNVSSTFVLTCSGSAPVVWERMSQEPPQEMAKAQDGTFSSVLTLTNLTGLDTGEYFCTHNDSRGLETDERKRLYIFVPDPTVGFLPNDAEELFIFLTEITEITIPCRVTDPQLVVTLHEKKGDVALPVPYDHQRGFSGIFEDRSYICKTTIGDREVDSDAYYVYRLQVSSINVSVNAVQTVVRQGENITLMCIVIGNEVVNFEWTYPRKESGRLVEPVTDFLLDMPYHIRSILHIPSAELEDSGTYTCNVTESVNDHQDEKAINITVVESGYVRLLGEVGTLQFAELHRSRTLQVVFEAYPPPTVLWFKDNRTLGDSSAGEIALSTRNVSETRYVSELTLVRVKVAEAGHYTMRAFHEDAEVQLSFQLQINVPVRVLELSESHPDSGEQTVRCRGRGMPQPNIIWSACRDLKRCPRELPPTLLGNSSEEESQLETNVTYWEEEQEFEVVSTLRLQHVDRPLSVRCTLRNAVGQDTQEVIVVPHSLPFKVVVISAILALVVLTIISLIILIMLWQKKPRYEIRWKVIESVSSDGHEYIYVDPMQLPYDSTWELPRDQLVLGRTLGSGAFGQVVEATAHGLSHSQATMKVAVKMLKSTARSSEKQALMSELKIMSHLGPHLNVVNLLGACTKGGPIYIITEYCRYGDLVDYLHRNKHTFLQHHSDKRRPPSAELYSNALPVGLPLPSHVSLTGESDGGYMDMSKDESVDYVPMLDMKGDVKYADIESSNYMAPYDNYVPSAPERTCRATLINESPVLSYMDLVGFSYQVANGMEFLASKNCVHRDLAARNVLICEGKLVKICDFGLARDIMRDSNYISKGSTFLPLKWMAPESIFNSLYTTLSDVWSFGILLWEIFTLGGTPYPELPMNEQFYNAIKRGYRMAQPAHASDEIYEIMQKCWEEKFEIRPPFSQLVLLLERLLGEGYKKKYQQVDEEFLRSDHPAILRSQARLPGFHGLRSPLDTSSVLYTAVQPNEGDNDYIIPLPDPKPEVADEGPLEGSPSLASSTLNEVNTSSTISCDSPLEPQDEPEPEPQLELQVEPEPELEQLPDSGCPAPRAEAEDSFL
Answers are plain numbers, in nM.

Parameters: items (list). Returns: GI50 for each item.
1. C=CS(=O)(=O)NCc1ccc(C(=O)Nc2ccc(C)c(Nc3nccc(-c4cccnc4)n3)c2)cc1
2. C=CC(=O)N(CCN(CC)CC)Cc1ccc(C(=O)Nc2ccc(C)c(Nc3nccc(-c4cccnc4)n3)c2)cc1
3. Cc1ccc(NC(=O)c2ccc(CN(CCN3CCCC3)C(=O)c3cccnc3)cc2)cc1Nc1nccc(-c2cccnc2)n1
4. CCCC(=O)N(CCN(C)C)Cc1ccc(C(=O)Nc2ccc(C)c(Nc3nccc(-c4cccnc4)n3)c2)cc1
5. Cc1ccc(C(=O)N(CCN(C)C)Cc2ccc(C(=O)Nc3ccc(C)c(Nc4nccc(-c5cccnc5)n4)c3)cc2)cc1
6. C=CC(=O)N(CCC(C)C)Cc1ccc(C(=O)Nc2ccc(C)c(Nc3nccc(-c4cccnc4)n3)c2)cc1
7. C/C=C/C(=O)N(CCN(C)C)Cc1ccc(C(=O)Nc2ccc(C)c(Nc3nccc(-c4cccnc4)n3)c2)cc1
8. CCC(=O)NCc1cccc(C(=O)Nc2ccc(C)c(Nc3nccc(-c4cccnc4)n3)c2)c1

Result:
48
1100
934
90
240
230
219
221

Parameters: items (list). Returns: GI50 for each item.
1. Cc1ccc(NC(=O)c2ccc(CN(CCN(C)C)C(=O)C(C)(C)C)cc2)cc1Nc1nccc(-c2cccnc2)n1
2. Cc1ccc(NC(=O)c2ccc(CNCCN(C)C)cc2)cc1Nc1nccc(-c2cccnc2)n1
3. Cc1ccc(NC(=O)c2ccc(CNC(=O)c3cccnc3)cc2)cc1Nc1nccc(-c2cccnc2)n1
4. Cc1ccc(NC(=O)c2ccc(CN(CCN(C)C)C(=O)c3cccs3)cc2)cc1Nc1nccc(-c2cccnc2)n1
5. Cc1ccc(NC(=O)c2ccc(CN(CCN(C)C)C(=O)c3cccnc3)cc2)cc1Nc1nccc(-c2cccnc2)n1
6. C=CC(=O)NCc1ccc(C(=O)Nc2ccc(C)c(Nc3nccc(-c4cccnc4)n3)c2)cc1
7. Cc1ccc(NC(=O)c2ccc(CNC(=O)c3cccnc3)c(C(F)(F)F)c2)cc1Nc1nccc(-c2cccnc2)n1
8. Cc1ccc(NC(=O)c2ccc(CN(CCN(C)C)C(=O)C(C)C)cc2)cc1Nc1nccc(-c2cccnc2)n1

Result:
1: 61; 2: 125; 3: 341; 4: 207; 5: 2900; 6: 155; 7: 82; 8: 123

Problem: Hello, I am looking for reported GI50 with Platelet-derived growth factor receptor beta (Homo sapiens, UniProt P09619) for C=CC(=O)NCc1cccc(C(=O)Nc2ccc(C)c(Nc3nccc(-c4cccnc4)n3)c2)c1 . Could you help?
Result: 244

* * *

target: Mast/stem cell growth factor receptor Kit (Homo sapiens); assay: Inhibition of TEL-fused c-KIT (unknown origin) expressed in mouse BA/F3 cells assessed as growth inhibition after 72 hrs by CellTiter-Glo or CCK-8 assay; format: cell-based
Sequence (P10721 whole entry, the tested form may be a part): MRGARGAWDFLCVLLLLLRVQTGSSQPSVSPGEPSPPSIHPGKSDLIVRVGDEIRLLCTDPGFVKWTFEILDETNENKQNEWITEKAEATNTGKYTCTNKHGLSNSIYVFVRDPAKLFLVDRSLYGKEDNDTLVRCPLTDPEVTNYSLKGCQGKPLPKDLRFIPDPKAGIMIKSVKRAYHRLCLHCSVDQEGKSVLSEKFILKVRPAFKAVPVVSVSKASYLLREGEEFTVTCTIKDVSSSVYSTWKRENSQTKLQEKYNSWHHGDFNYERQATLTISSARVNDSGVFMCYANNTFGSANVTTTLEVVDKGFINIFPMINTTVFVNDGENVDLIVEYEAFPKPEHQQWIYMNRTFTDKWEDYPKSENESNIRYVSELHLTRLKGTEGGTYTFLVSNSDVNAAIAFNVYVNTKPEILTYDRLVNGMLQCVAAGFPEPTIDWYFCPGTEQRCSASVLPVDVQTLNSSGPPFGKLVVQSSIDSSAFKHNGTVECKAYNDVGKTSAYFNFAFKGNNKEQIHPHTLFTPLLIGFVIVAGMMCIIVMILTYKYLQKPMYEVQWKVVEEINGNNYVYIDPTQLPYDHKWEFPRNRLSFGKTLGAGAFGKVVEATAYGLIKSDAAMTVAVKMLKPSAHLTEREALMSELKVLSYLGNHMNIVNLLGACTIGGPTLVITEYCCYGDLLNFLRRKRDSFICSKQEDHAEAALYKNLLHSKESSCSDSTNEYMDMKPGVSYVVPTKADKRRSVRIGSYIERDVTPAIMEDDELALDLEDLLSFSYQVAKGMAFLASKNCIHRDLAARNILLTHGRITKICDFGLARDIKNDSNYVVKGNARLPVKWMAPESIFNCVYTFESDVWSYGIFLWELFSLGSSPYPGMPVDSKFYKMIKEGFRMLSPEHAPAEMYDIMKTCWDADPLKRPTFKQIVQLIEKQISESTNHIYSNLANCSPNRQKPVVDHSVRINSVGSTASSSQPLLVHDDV
Exercise: state measured GI50 for each of the molecules provided.
One number for each entry, in µM.

Parameters: items (list). Returns: GI50 for each item.
1. CCCC(=O)N(CCN(C)C)Cc1ccc(C(=O)Nc2ccc(C)c(Nc3nccc(-c4cccnc4)n3)c2)cc1
2. C=CC(=O)N(CCC(C)C)Cc1ccc(C(=O)Nc2ccc(C)c(Nc3nccc(-c4cccnc4)n3)c2)cc1

Result:
1. 5.75
2. 3.94

Parameters: items (list). Returns: GI50 for each item.
1. CCC(=O)Nc1ccc(C(=O)Nc2ccc(C)c(Nc3nccc(-c4cccnc4)n3)c2)cc1
2. C=CC(=O)NCc1cccc(C(=O)Nc2ccc(C)c(Nc3nccc(-c4cccnc4)n3)c2)c1
3. C=CC(=O)N(CCN(CC)CC)Cc1ccc(C(=O)Nc2ccc(C)c(Nc3nccc(-c4cccnc4)n3)c2)cc1

Result:
1: 4.94; 2: 4.75; 3: 5.14

* * *

assay: AUC (0 to t) in Sprague-Dawley rat at 1 mg/kg, iv; type: ADME, organism-based; details: in vivo
Exercise: state measured AUC(0-t) for each of the compounds provided.
Answers are plain numbers, in ng·h/mL.

mol_smiles=Cc1ccc(NC(=O)c2ccc(CN(CCN(C)C)C(=O)c3cccnc3)cc2)cc1Nc1nccc(-c2cccnc2)n1 measured=528

Read the next record carefully.
Problem: # lookup: AUC(0-t) of Cc1ccc(NC(=O)c2ccc(CN3CCN(C)CC3)cc2)cc1Nc1nccc(-c2cccnc2)n1
Result: 856

* * *

// GI50 collected for Platelet-derived growth factor receptor alpha (Homo sapiens, UniProt P16234)
Answers are plain numbers, in nM.

Below, 7 compounds whose answers are already recorded.
mol_smiles=CCCC(=O)N(CCN(C)C)Cc1ccc(C(=O)Nc2ccc(C)c(Nc3nccc(-c4cccnc4)n3)c2)cc1 property=GI50 measure_unit=nM measured=25
mol_smiles=CCC(=O)N(CCN(C)C)Cc1ccc(C(=O)Nc2ccc(C)c(Nc3nccc(-c4cccnc4)n3)c2)cc1 property=GI50 measure_unit=nM measured=36
mol_smiles=Cc1ccc(C(=O)N(CCN(C)C)Cc2ccc(C(=O)Nc3ccc(C)c(Nc4nccc(-c5cccnc5)n4)c3)cc2)cc1 property=GI50 measure_unit=nM measured=100
mol_smiles=C=CC(=O)N(CCN(CC)CC)Cc1ccc(C(=O)Nc2ccc(C)c(Nc3nccc(-c4cccnc4)n3)c2)cc1 property=GI50 measure_unit=nM measured=344
mol_smiles=C=CC(=O)Nc1cc(C(=O)Nc2ccc(C)c(Nc3nccc(-c4cccnc4)n3)c2)cc(C(F)(F)F)c1 property=GI50 measure_unit=nM measured=13
mol_smiles=Cc1ccc(NC(=O)c2ccc(CN(CCN(C)C)C(=O)C(C)(C)C)cc2)cc1Nc1nccc(-c2cccnc2)n1 property=GI50 measure_unit=nM measured=17
mol_smiles=Cc1ccc(NC(=O)c2ccc(CN(CCO)C(=O)c3cccnc3)cc2)cc1Nc1nccc(-c2cccnc2)n1 property=GI50 measure_unit=nM measured=353

Problem: # lookup: GI50 of Cc1ccc(NC(=O)c2ccc(CN(CCN(C)C)C(=O)c3cccs3)cc2)cc1Nc1nccc(-c2cccnc2)n1
Result: 56

* * *

Exercise: state measured GI50 for each of the compounds provided.
target: Mast/stem cell growth factor receptor Kit (Homo sapiens); experiment: Inhibition of TEL-fused c-KIT (unknown origin) expressed in mouse BA/F3 cells assessed as growth inhibition after 72 hrs by CellTiter-Glo or CCK-8 assay; type: cell-based
One number for each entry, in µM.

Below, 3 compounds whose answers are already recorded.
mol_smiles=Cc1ccc(NC(=O)c2ccc(NC(=O)c3cccnc3)cc2)cc1Nc1nccc(-c2cccnc2)n1 measured=0.426
mol_smiles=CCC(=O)NCc1ccc(C(=O)Nc2ccc(C)c(Nc3nccc(-c4cccnc4)n3)c2)cc1 measured=6.22
mol_smiles=C=CC(=O)NCc1ccc(C(=O)Nc2ccc(C)c(Nc3nccc(-c4cccnc4)n3)c2)cc1C(F)(F)F measured=0.3

Read the next record carefully.
Problem: # lookup: GI50 of C=CC(=O)Nc1ccc(C(=O)Nc2ccc(C)c(Nc3nccc(-c4cccnc4)n3)c2)cc1
Result: 2.94

* * *

experiment: Cytotoxicity against mouse BA/F3 cells after 72 hrs by CellTiter-Glo or CCK-8 assay; format: cell-based, BaF3
property: GI50 at 72 h

Below, 5 compounds whose answers are already recorded.
mol_smiles=C=CC(=O)N(CCC(C)C)Cc1ccc(C(=O)Nc2ccc(C)c(Nc3nccc(-c4cccnc4)n3)c2)cc1 measured="5.62 µM"
mol_smiles=C=CC(=O)Nc1ccc(C(=O)Nc2ccc(C)c(Nc3nccc(-c4cccnc4)n3)c2)cc1 measured="5.6 µM"
mol_smiles=CCCC(=O)N(CCN(C)C)Cc1ccc(C(=O)Nc2ccc(C)c(Nc3nccc(-c4cccnc4)n3)c2)cc1 measured="> 10 µM"
mol_smiles=CCC(=O)N(CCN(C)C)Cc1ccc(C(=O)Nc2ccc(C)c(Nc3nccc(-c4cccnc4)n3)c2)cc1 measured="> 10 µM"
mol_smiles=Cc1ccc(NC(=O)c2ccc(CNCCN(C)C)cc2)cc1Nc1nccc(-c2cccnc2)n1 measured="> 10 µM"

Parameters: items (list). Returns: GI50 at 72 h for each item.
1. Cc1ccc(NC(=O)c2ccc(CN(CCO)C(=O)c3cccnc3)cc2)cc1Nc1nccc(-c2cccnc2)n1
2. Cc1ccc(NC(=O)c2ccc(CN(CCN(C)C)C(=O)c3ccno3)cc2)cc1Nc1nccc(-c2cccnc2)n1
3. C/C=C/C(=O)N(CCN(C)C)Cc1ccc(C(=O)Nc2ccc(C)c(Nc3nccc(-c4cccnc4)n3)c2)cc1
4. C=CC(=O)NCc1ccc(C(=O)Nc2ccc(C)c(Nc3nccc(-c4cccnc4)n3)c2)cc1

Result:
1. > 10 µM
2. > 10 µM
3. > 10 µM
4. > 10 µM

Parameters: items (list). Returns: GI50 at 72 h for each item.
1. Cc1ccc(NC(=O)c2ccc(CNC(=O)c3cccnc3)cc2)cc1Nc1nccc(-c2cccnc2)n1
2. C=CC(=O)N(CCN(C)C)Cc1ccc(C(=O)Nc2ccc(C)c(Nc3nccc(-c4cccnc4)n3)c2)cc1
3. Cc1ccc(NC(=O)c2ccc(NC(=O)c3cccnc3)cc2)cc1Nc1nccc(-c2cccnc2)n1
4. Cc1ccc(NC(=O)c2ccc(CN(CCN(C)C)C(=O)C3CC3)cc2)cc1Nc1nccc(-c2cccnc2)n1

Result:
1: 1.12 µM; 2: > 10 µM; 3: 1.7 µM; 4: > 10 µM

Problem: # lookup: GI50 at 72 h of Cc1ccc(NC(=O)c2ccc(CN(CCN(C)C)C(=O)c3cccs3)cc2)cc1Nc1nccc(-c2cccnc2)n1
Result: > 10 µM
